- Assay Overview: Cell counts and viability of LNCaP cells after culture with iron chelator
- Type: cell-based
- Stated Conditions: human, LNCaP cells, Desferal 2.5 ug/ml
Measure Name: viability at 72 h, 2.5 ug/ml (%)

>>> reported("CC(=O)N(O)CCCCCNC(=O)CCC(=O)N(O)CCCCCNC(=O)CCC(=O)N(O)CCCCCN [Desferal, Deferoxamine]")
94.3

====

- Assay Overview: Cell counts and viability of LNCaP cells after culture with iron chelator
- Type: cell-based
- Stated Conditions: human, LNCaP cells, Desferal 0.1 ug/ml
Measure Name: viability at 72 h, 0.1 ug/ml

>>> reported("CC(=O)N(O)CCCCCNC(=O)CCC(=O)N(O)CCCCCNC(=O)CCC(=O)N(O)CCCCCN")
"93%"
